Target: Dual specificity protein kinase TTK (Homo sapiens, UniProt P33981)
Sequence (P33981 whole entry): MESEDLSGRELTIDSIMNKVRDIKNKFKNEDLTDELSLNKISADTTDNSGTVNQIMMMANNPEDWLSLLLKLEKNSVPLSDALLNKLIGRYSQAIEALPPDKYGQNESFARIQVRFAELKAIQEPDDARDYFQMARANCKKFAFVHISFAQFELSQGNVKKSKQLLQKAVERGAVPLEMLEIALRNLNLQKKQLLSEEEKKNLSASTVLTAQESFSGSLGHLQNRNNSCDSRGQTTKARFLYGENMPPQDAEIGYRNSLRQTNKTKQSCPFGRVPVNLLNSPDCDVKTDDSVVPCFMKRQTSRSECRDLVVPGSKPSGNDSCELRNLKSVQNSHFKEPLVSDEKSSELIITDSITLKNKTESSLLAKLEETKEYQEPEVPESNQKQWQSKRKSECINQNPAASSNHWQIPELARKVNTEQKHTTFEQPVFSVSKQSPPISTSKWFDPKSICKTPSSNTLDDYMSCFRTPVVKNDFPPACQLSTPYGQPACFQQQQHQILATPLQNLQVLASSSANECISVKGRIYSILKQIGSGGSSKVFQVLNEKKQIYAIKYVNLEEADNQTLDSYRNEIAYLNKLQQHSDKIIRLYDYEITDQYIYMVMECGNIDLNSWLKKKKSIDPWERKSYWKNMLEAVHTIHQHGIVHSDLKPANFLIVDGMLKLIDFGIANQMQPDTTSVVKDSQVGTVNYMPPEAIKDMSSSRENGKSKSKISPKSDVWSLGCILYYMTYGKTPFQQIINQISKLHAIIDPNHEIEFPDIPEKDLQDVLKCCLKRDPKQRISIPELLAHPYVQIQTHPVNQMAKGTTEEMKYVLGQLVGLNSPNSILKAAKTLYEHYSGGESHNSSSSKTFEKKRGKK
pIC50: −log10 of the molar value.
metric-name: pIC50

Field: example entries. Status: answers known.
Enquiry: Given "c1cc2c(ccn2-c2nc(Nc3ccc(N4CCOCC4)cc3)nc3[nH]ccc23)cn1" , respond with its pIC50.
Return: 6.33

Enquiry: Given "Cn1cc(-c2nc(Nc3ccc(N4CCOCC4)cc3)nc3[nH]ccc23)cn1" , respond with its pIC50.
Return: 7.31

Enquiry: Given "Nc1nn(-c2nc(Nc3ccccc3OC(F)(F)F)nc3[nH]ccc23)c2ccccc12" , respond with its pIC50.
Return: 6.81

Enquiry: Given "c1ccc2c(c1)ccn2-c1nc(Nc2ccc(N3CCOCC3)cc2)nc2[nH]ccc12" , respond with its pIC50.
Return: 6.84

Enquiry: Given "c1ccc2c(c1)ncn2-c1nc(Nc2ccc(N3CCOCC3)cc2)nc2[nH]ccc12" , respond with its pIC50.
Return: 7.33

P: CN1CCN(c2ccc(Nc3nc(-n4ccc5cnccc54)c4cc[nH]c4n3)cc2)CC1
Q: COc1cc(N2CCOCC2)ccc1Nc1nc(-n2cnc3ccccc32)c2cc[nH]c2n1
Enquiry: // pick min by pIC50: P , Q To answer, give the label that identifies your chosen option.
Return: P
(P: 6.83, Q: 7.40)

A: CN1CCN(c2ccc(Nc3nc(-n4ccc5ccccc54)c4cc[nH]c4n3)cc2)CC1
B: CN1CCN(c2ccc(Nc3nc(-n4cnc5ccccc54)c4cc[nH]c4n3)cc2)CC1
Enquiry: Determine, for A and B , which has the greater value of pIC50. To answer, give the label that identifies your chosen option.
Return: B
(B: 7.08, A: 6.86)
